Tested on: UO-31 renal
protocolText: NCI-60 one-dose screen, 48 h
protocolConditions: 10 µM unless noted
Description: Growth inhibition of the UO-31 human tumor cell line is measured as a screen for anti-cancer activity. Cells are grown in 96 well plates and exposed to the test compound for 48 hours. Compounds are tested at a single concentration, which is 10^-5 M for most compounds. The reported endpoint is percent growth (GI% or GIPRCNT), where numbers from 0 - 100% represent growth inhibition, and numbers from -100% - 0 represent cell death. For example, a value of 40 represents 60% growth inhibition. […]
About 83,000 compounds went through this panel and 20% of them were active in at least one assay; those are over-represented in the sample as a whole. Active and inactive are the calls of the source. How the source made its calls: active means growth percent below 10; inactive means the rest.
# valid calls are yes (1) = active, no (0) = inactive; nothing else

Consider the worked cases shown below.
CC(C)=CCC/C(C)=C/C=N\N=C(/N)N[N+](=O)[O-]: no (0)
CCCCCCCCCCCCNC(c1ccccc1)C(O)c1ccccc1 (configuration not stated): no (0)
COc1ccc(/C=C\c2cc(OC)c(OC)c(OC)c2)cc1NS(=O)(=O)c1ccc(Cl)cc1: no (0)

How was O=Cc1cn(Cc2ccc(Cl)cc2)c2ccccc12 classified in this test?
no (0)

Similarly, CNC(=O)Oc1ccc(C(C)(C)C)cc1OC(=O)NC ?
no (0)

Similarly, C=CC1=C[C@@H]2[C@@H]3O[C@]4(CC[C@H](O4)[C@@H](C)C[C@@H](O)C3=O)C[C@H](O)C3=NCC[C@@]32CC1 ?
yes (1)

Sourced from PubChem BioAssay (NCI)
